Each entry below lists one item and its recorded pIC50 value.
- target: CDK4/Cyclin D1 (Homo sapiens (Human))
- experimentalProtocol: CDK4/CyclinD1 enzymatic activity assay (TR-FRET)
- Assay type: biochemical
- conditionContext: ATP 2 mM, read-out: CDK4_D1 IC50
- Method: CDK4/CyclinD1 Enzymatic Activity Assay The inhibitory activity of compounds was evaluated in vitro using TR-FRET assay with white 384-well low volume microplate (Greiner Bio-One). CDK4/Cyclin D1 catalyzed phosphorylation of peptide in the presence and absence of compounds was measured. […] The reaction signal was measured by Envision multimode plate reader (PerkinElmer, 2102-0010). IC50 values were determined by fitting the data to the standard 4 parameters with Hill Slope using GraphPad Prism software.
pIC50: −log10 of the molar value.

// below: answered compounds
# compound, measurementName, measValue
measured = [
    ("COc1cnc(Nc2ccc(C3CCN(C)CC3)cn2)nc1-c1cc2nc(C)n(C(C)C)c2s1", "pIC50", "6.70 to 7.70"),
    ("CCN1CCN(Cc2ccc(Nc3ncc(F)c(-c4sc5c(C6CCCC6)ccnc5c4C)n3)nc2)CC1", "pIC50", "6.70 to 7.70"),
    ("Cc1c(-c2nc(Nc3ccc(N4CCC(F)(F)C4)cn3)ncc2F)sc2c1nc(C)n2C1CCCC1", "pIC50", "6.70 to 7.70"),
    ("Cc1c(-c2nc(Nc3ccc(C4CCCN(C)C4)cn3)ncc2Cl)sc2c1ncn2C(C)C (centres unmarked)", "pIC50", "≥ 7.70"),
]

Enquiry: Consider the compound Cc1c(-c2nc(Nc3ccc(C4CCN(C(C)C)C4)cn3)ncc2F)sc2c(C(C)C)cn(C)c(=O)c12 (centres unmarked) and give its recorded pIC50.
Return: ≥ 7.70

Enquiry: Consider the compound "CN1CCC(c2ccc(Nc3ncc(F)c(-c4cc5nccc(C6CCCC6)c5s4)n3)nc2)CC1" and give its recorded pIC50.
Return: ≥ 7.70

Enquiry: Consider the compound "CCN1CCN(Cc2ccc(Nc3ncc(F)c(-c4sc5c(C6CCCC6)ccnc5c4Cl)n3)nc2)CC1" and give its recorded pIC50.
Return: ≥ 7.70

Enquiry: Consider the compound "Cc1c(-c2nc(Nc3ccc(C4CCN(C)CC4)cn3)ncc2F)sc2c(C3CCCC3)ccnc12" and give its recorded pIC50.
Return: ≥ 7.70

----------
Each entry below lists one item and its recorded IC50 value.
- Test system: MCF7 adenocarcinoma cell line
- experimentalProtocol: Cell proliferation studies in MCF7 cells (ATP-Lite, 10 days)
- Format: cell-based
- conditionContext: read-out: PROLIFERATION_CTG_MCF7 IC50

// below: answered compounds
# compound, IC50
data = [
    ("CCN1CC2(C1)CN(C(=O)c1ccc(Nc3ncc(F)c(-c4cc5nc(C)n(C(C)C)c5s4)n3)nc1)C2", "20 to 200 nM"),
    ("Cc1c(-c2nc(Nc3ccc(C4CCCN(C)C4)cn3)ncc2F)sc2c1ncn2C(C)C (single isomer, unassigned)", "20 to 200 nM"),
]

Now for another entry.
Enquiry: Provide measured IC50 on MCF7 adenocarcinoma cell line for Cc1c(-c2nc(Nc3ccc(C4CN(C)CCO4)cn3)ncc2F)sc2c1nc(C)n2C(C)C (stereo not drawn) please.
Return: 20 to 200 nM

----------
- target: CDK4/Cyclin D1 (Homo sapiens (Human), UniProt P11802)
- Sequence (P11802 whole entry): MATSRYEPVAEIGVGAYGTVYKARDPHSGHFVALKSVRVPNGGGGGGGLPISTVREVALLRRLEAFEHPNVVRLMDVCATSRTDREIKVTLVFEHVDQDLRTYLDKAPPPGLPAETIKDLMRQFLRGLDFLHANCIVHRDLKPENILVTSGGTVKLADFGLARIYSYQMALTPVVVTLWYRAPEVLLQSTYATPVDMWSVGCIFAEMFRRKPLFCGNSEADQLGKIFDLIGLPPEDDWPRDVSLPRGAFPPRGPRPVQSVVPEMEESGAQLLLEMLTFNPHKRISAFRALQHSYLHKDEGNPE
- Sequence (P24385 whole entry partner): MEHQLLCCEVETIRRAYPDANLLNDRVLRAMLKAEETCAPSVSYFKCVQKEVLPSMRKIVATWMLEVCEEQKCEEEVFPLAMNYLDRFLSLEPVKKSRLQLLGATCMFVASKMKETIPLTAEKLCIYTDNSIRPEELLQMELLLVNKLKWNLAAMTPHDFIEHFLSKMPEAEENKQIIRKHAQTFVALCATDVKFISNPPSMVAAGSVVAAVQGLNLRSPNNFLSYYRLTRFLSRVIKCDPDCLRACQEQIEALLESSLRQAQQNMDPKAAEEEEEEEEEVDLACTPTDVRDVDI
- experimentalProtocol: CDK4/CyclinD1 enzymatic activity assay (TR-FRET)
- conditionContext: ATP 2 mM, read-out: CDK4_D1 IC50
measurementName: IC50

// below: answered compounds
# compound, measurementName, measValue
data = [
    ("CN1CCC(c2ccc(Nc3ncc(F)c(-c4cc5c(C6CCCC6)ccnc5s4)n3)nc2)CC1 [Example 43]", "IC50", "20 to 200 nM"),
    ("CCN1CCN(c2ccc(Nc3ncc(F)c(-c4sc5c(C(C)C)ccnc5c4C#N)n3)nc2)CC1 [Example 122]", "IC50", "20 to 200 nM"),
    ("CCN1CCN(c2ccc(Nc3ncc(F)c(-c4cc5nccc(C(C)(C)O)c5s4)n3)nc2)CC1 [Example 17]", "IC50", "≤ 20 nM"),
]

Now for another entry.
Enquiry: Consider the compound CCN1CC2(C1)CN(c1ccc(Nc3ncc(F)c(-c4cc5ncn(C(C)C)c5s4)n3)nc1)C2 [Example 129] and give its recorded IC50.
Return: ≤ 20 nM
